# System: HCV 1b_Huh-Luc/Neo-ET cell line persistently expressing a bicistronic genotype 1b replicon in Huh 7 cells
# experiment_description: HCV replicon assay (luciferase readout, 72 h)
# Type: cell-based, HCV genotype 1b
# reported_conditions: Hepatitis C virus, Huh-7, 72 h, read-out: Inhibition of HCV genotype 1b
pEC50: −log10 of the molar value.
experimental_endpoint: pEC50

# pEC50 of COC(=O)N[C@@H](C(=O)N1CCC[C@H]1c1ncc(-c2ccc(C#Cc3ccc(C(=O)NC[C@@H]4CCCN4C(=O)[C@@H](c4ccccc4)N(C)C)cc3)cc2)[nH]1)c1ccccc1 = > 9.00

# pEC50 of COC(=O)N[C@@H](C(=O)N1CCC[C@H]1c1ncc(-c2ccc(C#Cc3ccc(-c4cnc([C@@H]5CCCN5C(=O)[C@H](NC(=O)N5CC[C@@H](OC)C5)c5ccccc5)[nH]4)cc3)cc2)[nH]1)c1ccccc1 = > 9.00

# pEC50 of COC(=O)N[C@H]1CCC[C@@H]1C(=O)N1CCC[C@H]1c1ncc(-c2ccc(C#Cc3ccc4nc([C@@H]5CCCN5C(=O)[C@H]5CCC[C@@H]5NC(=O)OC)[nH]c4c3)cc2)[nH]1 = 6.00 to 8.00

# pEC50 of O=C(N[C@@H](C(=O)N1CCC[C@H]1c1ncc(-c2ccc(C#Cc3ccc(-c4cnc([C@@H]5CCCN5C(=O)[C@H](NC(=O)N5CCC(O)CC5)c5ccccc5)[nH]4)cc3)cc2)[nH]1)c1ccccc1)N1CCC(O)CC1 = > 9.00

# pEC50 of COC(=O)N[C@H](C(=O)N1CCC[C@H]1c1ncc(C#Cc2ccc(-c3ccc4nc([C@@H]5CCCN5C(=O)[C@@H](NC(=O)OC)C(C)C)[nH]c4c3)nc2)[nH]1)C(C)C = > 9.00

----------
# Test system: HCV 1b_Huh-Luc/Neo-ET cell line persistently expressing a bicistronic genotype 1b replicon in Huh 7 cells
# experiment_description: HCV replicon assay (luciferase readout, 72 h)
# Type: cell-based, HCV genotype 1b
# reported_conditions: Hepatitis C virus, Huh-7, 72 h, read-out: Inhibition of HCV genotype 1b
pEC50: −log10 of the molar value.
experimental_endpoint: pEC50

# pEC50 of COC(=O)N[C@@H](C(=O)N1CCC[C@H]1c1ncc(-c2ccc(C#Cc3ccc(-c4cnc([C@@H]5CCCN5C(=O)[C@@H](c5ccccc5)N5CCCC5)[nH]4)cc3)cc2)[nH]1)c1ccccc1 [Compound 178] = > 9.00

# pEC50 of CCN(CC)[C@@H](C(=O)N1CCC[C@H]1c1ncc(-c2ccc(-c3ccc(C#Cc4cnc([C@@H]5CCCN5C(=O)[C@H](NC(=O)OC)c5ccccc5)[nH]4)cc3)cc2)[nH]1)c1ccccc1 [Compound 751] = > 9.00

# pEC50 of O=C(N[C@@H](C(=O)N1CCC[C@H]1C(=O)NCCc1ccc(C#Cc2cnc([C@@H]3CCCN3C(=O)[C@H](NC(=O)C3CC3)c3ccccc3)[nH]2)cc1)c1ccccc1)C1CC1 [Compound 125] = > 9.00

# pEC50 of O=C(NCC(=O)N1CCC[C@H]1c1ncc(C#Cc2ccc(-c3cnc([C@@H]4CCCN4C(=O)CNC(=O)C4CC4)[nH]3)cc2)[nH]1)C1CC1 [Compound 113] = 6.00 to 8.00

# pEC50 of CCC(CC)[C@H](NC(=O)OC)C(=O)N1CCC[C@H]1c1ncc(-c2ccc(C#Cc3ccc4nc([C@@H]5CCCN5C(=O)[C@@H](NC(=O)OC)C(CC)CC)[nH]c4c3)cc2)[nH]1 [Compound 1030] = > 9.00

# pEC50 of COC(=O)N[C@@H](C(=O)N1CCC[C@H]1c1ncc(-c2ccc(C#Cc3ccc(-c4cnc([C@@H]5CCCN5C(=O)[C@H](NC(=O)C5CC5)c5ccccc5)[nH]4)cc3)cc2)[nH]1)c1ccccc1 [Compound 218] = > 9.00

# pEC50 of COC(=O)N[C@H](C(=O)N(C)[C@@H](C)c1ncc(-c2ccc(C#Cc3ccc(-c4cnc([C@@H]5CCCN5C(=O)[C@@H](NC(=O)OC)C(C)C)[nH]4)cc3)cc2)[nH]1)C(C)C [Compound 267] = > 9.00

# pEC50 of COC(=O)N[C@H](C(=O)N1CCC[C@H]1c1nc(-c2cnc3cc(C#Cc4ccc(-c5cnc([C@@H]6CCCN6C(=O)[C@@H](NC(=O)OC)C(C)C)[nH]5)cc4)ccc3c2)c[nH]1)C(C)C [Compound 1088] = 8.00 to 9.00

# pEC50 of COC(=O)N[C@@H](C(=O)N1CCC[C@H]1c1ncc(-c2ccc(C#Cc3ccc(-c4cnc([C@@H]5CCCN5C(=O)[C@H](NC(=O)N5CCC[C@@H]5CO)c5ccccc5)[nH]4)cc3)cc2)[nH]1)c1ccccc1 [Compound 254] = > 9.00

# pEC50 of COC(=O)N[C@@H](C)C(=O)N1CCC[C@H]1c1ncc(-c2ccc(C#Cc3ccc(-c4cnc([C@@H]5CCCN5C(=O)[C@@H](c5ccccc5)N5CCOC5=O)[nH]4)cc3)cc2)[nH]1 [Compound 1008] = > 9.00

# pEC50 of CC(C)[C@@H](NC(=O)C1CC1)C(=O)N1CCC[C@H]1C(=O)Nc1ccc(C#Cc2cnc([C@@H]3CCCN3C(=O)[C@H](NC(=O)C3CC3)C(C)C)[nH]2)cc1 [Compound 116] = 8.00 to 9.00

# pEC50 of CN(C)[C@@H](C(=O)N1CCC[C@H]1c1ncc(-c2ccc(C#Cc3ccc(-c4cnc([C@@H]5CCCN5C(=O)[C@H](NS(C)(=O)=O)c5ccccc5)[nH]4)cc3)cc2)[nH]1)c1ccccc1 [Compound 228] = > 9.00

# pEC50 of C[C@@H](NC(=O)OC(C)(C)C)C(=O)N1CCC[C@H]1c1ncc(-c2ccc(C#Cc3ccc(-c4cnc([C@@H]5CCCN5C(=O)[C@@H](C)NC(=O)OC(C)(C)C)[nH]4)cc3)cc2)[nH]1 [Compound 151] = 6.00 to 8.00

# pEC50 of COC(=O)N[C@H](C(=O)N[C@@H](C)c1ncc(-c2ccc(C#Cc3ccc4nc([C@@H]5CCCN5C(=O)[C@@H](NC(=O)OC)C(C)C)[nH]c4c3)cc2)[nH]1)C(C)C [Compound 869] = > 9.00

# pEC50 of O=C(N[C@@H](C(=O)N1CCC[C@H]1c1cc(-c2ccc(C#Cc3ccc(-c4cnc([C@@H]5CCCN5C(=O)[C@H](NC(=O)N5CCOCC5)c5ccccc5)[nH]4)cc3)cc2)n[nH]1)c1ccccc1)N1CCOCC1 [Compound 220] = > 9.00

# pEC50 of COC(=O)N[C@H](C(=O)N1CCC[C@H]1c1ncc(-c2ccc(C#Cc3ccc4nc([C@@H]5CCCN5C(=O)[C@@H](NC(=O)OC)[C@@H](C)O)[nH]c4c3)cc2)[nH]1)[C@@H](C)O [Compound 863] = > 9.00

# pEC50 of CC(C)[C@H](NC(=O)N1CC[C@@H](O)C1)C(=O)N1CCC[C@H]1c1ncc(-c2ccc(C#Cc3ccc(-c4cnc([C@@H]5CCCN5C(=O)[C@@H](NC(=O)N5CC[C@@H](O)C5)C(C)C)[nH]4)cc3)cc2)[nH]1 [Compound 968] = 6.00 to 8.00

# pEC50 of O=C(N[C@@H](C(=O)N1CCC[C@H]1c1ncc(C#Cc2ccc(C#Cc3cnc([C@@H]4CCCN4C(=O)[C@H](NC(=O)N4CCOCC4)c4ccccc4)[nH]3)cc2)[nH]1)c1ccccc1)N1CCOCC1 [Compound 309] = > 9.00
